Hey, just so you know, these numbers are from patent US20160122386A1.

biological target: human V1aR (Homo sapiens, UniProt P37288); construct: expressed in transfected cells; test: Agonist activity at vasopressin V1a receptors, cell-based FLIPR calcium assay
Sequence (P37288 whole entry): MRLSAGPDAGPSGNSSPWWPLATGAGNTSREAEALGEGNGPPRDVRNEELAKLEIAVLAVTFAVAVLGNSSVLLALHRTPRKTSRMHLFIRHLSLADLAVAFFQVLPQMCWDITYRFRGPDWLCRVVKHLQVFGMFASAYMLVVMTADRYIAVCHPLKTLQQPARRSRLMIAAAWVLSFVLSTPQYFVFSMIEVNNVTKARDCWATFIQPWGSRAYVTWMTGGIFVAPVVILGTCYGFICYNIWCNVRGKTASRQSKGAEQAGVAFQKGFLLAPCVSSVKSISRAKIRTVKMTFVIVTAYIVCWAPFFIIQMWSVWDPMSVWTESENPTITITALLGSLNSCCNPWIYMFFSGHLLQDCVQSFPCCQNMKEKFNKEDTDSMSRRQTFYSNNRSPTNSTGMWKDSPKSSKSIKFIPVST
Consider the following compounds; for each one, report its EC50.
One number for each entry, in nM.

Consider the following illustrative entries.
smiles.structure: CC[C@H](C)[C@@H]1NC(=O)[C@H](Cc2ccccc2)NC(=O)[C@@H](N)CSSC[C@@H](C(=O)N2CCC[C@H]2C(=O)N[C@@H](CCCNCCCCCNC(=O)CC[C@H](NC(=O)[C@H](CCCNC(=N)N)NC(=O)[C@@H]2CCCN2C(=O)[C@H](CCCCN)NC(=O)[C@H](CC(N)=O)NC(=O)[C@H](CCC(N)=O)NC(=O)[C@H](Cc2ccccc2)NC(=O)[C@@H](Cc2ccc(OC)cc2)NC(=O)Cc2ccccc2)C(N)=O)C(=O)NCC(N)=O)NC(=O)[C@H](CC(N)=O)NC(=O)[C@H](CCC(N)=O)NC1=O
tested.target: human V1aR (Homo sapiens, UniProt P37288)
units: nM
EC50: 2.3

smiles.structure: CC[C@H](C)[C@@H]1NC(=O)[C@H](Cc2ccccc2)NC(=O)[C@@H](N)CSSC[C@@H](C(=O)N2CCC[C@H]2C(=O)N[C@@H](CCCNCCCCCNC(=O)CC[C@H](NC(=O)[C@H](CCCNC(=N)N)NC(=O)[C@@H]2CCCN2C(=O)[C@H](Cc2c[nH]cn2)NC(=O)[C@H](CC(N)=O)NC(=O)[C@H](CCC(N)=O)NC(=O)[C@H](Cc2ccccc2)NC(=O)[C@@H](Cc2ccc(OC)cc2)NC(=O)Cc2ccccc2)C(N)=O)C(=O)NCC(N)=O)NC(=O)[C@H](CC(N)=O)NC(=O)[C@H](CCC(N)=O)NC1=O
tested.target: human V1aR (Homo sapiens, UniProt P37288)
units: nM
EC50: 2.4

smiles.structure: CC[C@H](C)[C@@H]1NC(=O)[C@H](Cc2ccccc2)NC(=O)[C@@H](N)CSSC[C@@H](C(=O)N2CCC[C@H]2C(=O)N[C@@H](CCCNCCCCCNC(=O)CC[C@H](NC(=O)[C@H](CCCNC(=N)N)NC(=O)[C@@H]2CCCN2C(=O)[C@H](CCCNC(N)=O)NC(=O)[C@H](CC(N)=O)NC(=O)[C@H](CCC(N)=O)NC(=O)[C@H](Cc2ccc(Cl)cc2)NC(=O)[C@@H](Cc2ccc(OC)cc2)NC(=O)Cc2ccccc2)C(N)=O)C(=O)NCC(N)=O)NC(=O)[C@H](CC(N)=O)NC(=O)[C@H](CCC(N)=O)NC1=O
tested.target: human V1aR (Homo sapiens, UniProt P37288)
units: nM
EC50: 0.8

smiles.structure: CC[C@H](C)[C@@H]1NC(=O)[C@H](Cc2ccccc2)NC(=O)[C@@H](O)CSSC[C@@H](C(=O)N2CCC[C@H]2C(=O)N[C@@H](CCNC(=O)[C@@H](N)CCCCNC(=O)CC[C@H](NC(=O)[C@H](CCCNC(=N)N)NC(=O)[C@@H]2CCCN2C(=O)[C@H](CCCNC(=N)N)NC(=O)[C@H](CC(N)=O)NC(=O)[C@H](CCC(N)=O)NC(=O)[C@H](Cc2ccccc2)NC(=O)[C@@H](Cc2ccc(OC)cc2)NC(=O)Cc2ccccc2)C(N)=O)C(=O)NCC(N)=O)NC(=O)[C@H](CC(N)=O)NC(=O)[C@H](CCC(N)=O)NC1=O
tested.target: human V1aR (Homo sapiens, UniProt P37288)
units: nM
EC50: 0.83

Batch request: EC50 per item, same order as input.
1. CC[C@H](C)[C@@H]1NC(=O)[C@H](Cc2ccccc2)NC(=O)[C@@H](N)CSSC[C@@H](C(=O)N2CCC[C@H]2C(=O)N[C@@H](CCCNCCCCCNC(=O)CC[C@H](NC(=O)[C@H](CCCNC(=N)N)NC(=O)[C@@H]2CCCN2C(=O)[C@H](CCCNC(N)=O)NC(=O)[C@H](CC(N)=O)NC(=O)[C@H](CCC(N)=O)NC(=O)[C@H](Cc2ccccc2)NC(=O)[C@@H](Cc2ccc(OC)cc2)NC(=O)Cc2ccccc2)C(N)=O)C(=O)NCC(N)=O)NC(=O)[C@H](CC(N)=O)NC(=O)[C@H](CCC(N)=O)NC1=O
2. CC[C@H](C)[C@@H]1NC(=O)[C@H](Cc2ccccc2)NC(=O)[C@@H](O)CSSC[C@@H](C(=O)N2CCC[C@H]2C(=O)N[C@@H](CCNC(=O)[C@@H](N)CCCCNC(=O)CC[C@H](NC(=O)[C@H](CCCNC(=N)N)NC(=O)[C@@H]2CCCN2C(=O)[C@H](CCCCN)NC(=O)[C@H](CC(N)=O)NC(=O)[C@H](CCC(N)=O)NC(=O)[C@H](Cc2ccccc2)NC(=O)[C@@H](Cc2ccc(OC)cc2)NC(=O)Cc2ccccc2)C(N)=O)C(=O)NCC(N)=O)NC(=O)[C@H](CC(N)=O)NC(=O)[C@H](CCC(N)=O)NC1=O
3. CC[C@H](C)[C@@H]1NC(=O)[C@H](Cc2ccccc2)NC(=O)[C@@H](N)CSSC[C@@H](C(=O)N2CCC[C@H]2C(=O)N[C@@H](CCCNCCCCCCNC(=O)CCCCNC(=O)CC[C@H](NC(=O)[C@H](CCCNC(=N)N)NC(=O)[C@@H]2CCCN2C(=O)[C@H](C)NC(=O)[C@H](CC(N)=O)NC(=O)[C@H](CCC(N)=O)NC(=O)[C@H](Cc2ccccc2)NC(=O)[C@@H](Cc2ccc(OC)cc2)NC(=O)Cc2ccccc2)C(N)=O)C(=O)NCC(N)=O)NC(=O)[C@H](CC(N)=O)NC(=O)[C@H](CCC(N)=O)NC1=O

1: 2.3; 2: 1; 3: 1.3
